Test system: HCV 1b-377-neo replicon cells
Assay: HCV Replicon assay, HCV 1b-377-neo replicon cells
Assay type: cell-based, HCV 1b genotype
Details: Hepatitis C virus, Table 2, read-out: Range (EC50 against HCV 1b)
Measured EC50 accompanies every entry in the list below.

Some molecules with recorded EC50:
molecule=COC(=O)N[C@@H](C(=O)N1CCC[C@H]1c1ncc(-c2ccc(-c3ccc(-c4cnc([C@@H]5CCCN5C(=O)Cc5ccccc5)[nH]4)cc3)cc2)[nH]1)c1ccccc1 measurement_target="HCV 1b-377-neo replicon cells" endpoint_name=EC50 meas_value="1 to 99 nM"
molecule=COC(=O)N[C@@H](C(=O)N(C)[C@@H](C)c1ncc(-c2ccc(-c3ccc(-c4cnc([C@H](C)N(C)C(=O)[C@H](NC(=O)OC)c5ccccc5)[nH]4)cc3)cc2)[nH]1)c1ccccc1 measurement_target="HCV 1b-377-neo replicon cells" endpoint_name=EC50 meas_value="0.001 to 0.999 nM"
molecule=COC(=O)N[C@H](C(=O)N1CCC[C@H]1c1ncc(-c2ccc(-c3ccc(-c4cnc([C@@H]5CCCN5C(=O)[C@@H](Nc5ncccn5)C(C)C)[nH]4)cc3)cc2)[nH]1)C(C)C measurement_target="HCV 1b-377-neo replicon cells" endpoint_name=EC50 meas_value="0.001 to 0.999 nM"
molecule=Cc1cc(-c2cnc([C@@H]3CCCN3C(=O)[C@@H](c3ccccc3)N(C)C)[nH]2)ccc1-c1ccc(-c2cnc([C@@H]3CCCN3C(=O)[C@@H](c3ccccc3)N(C)C)[nH]2)cn1 measurement_target="HCV 1b-377-neo replicon cells" endpoint_name=EC50 meas_value="0.001 to 0.999 nM"
molecule="COC(=O)N[C@H](C(=O)N[C@H](c1nc(-c2ccc(-c3ccc(-c4c[nH]c(C5CCCN5C(=O)[C@@H](NC(=O)OC)[C@@H](C)OC)n4)cc3)cc2)c[nH]1)C(C)C)[C@@H](C)OC (stereo partly shown)" measurement_target="HCV 1b-377-neo replicon cells" endpoint_name=EC50 meas_value="0.001 to 0.999 nM"
molecule="O=C([C@@H](c1ccccc1)N1CCCCC1)N1CCC[C@H]1c1ncc(-c2ccc(-c3ncc(-c4cnc([C@@H]5CCCN5C(=O)[C@@H](c5ccccc5)N5CCCCC5)[nH]4)cn3)cc2)[nH]1 [Example 152j-5]" measurement_target="HCV 1b-377-neo replicon cells" endpoint_name=EC50 meas_value="0.001 to 0.999 nM"
molecule=COC(=O)N[C@@H](C)C(=O)N1CCC[C@H]1c1ncc(-c2cnc(-c3ccc(-c4[nH]c([C@@H]5CCCN5C(=O)[C@H](C)NC(=O)OC)nc4C(F)(F)F)cc3)nc2)[nH]1 measurement_target="HCV 1b-377-neo replicon cells" endpoint_name=EC50 meas_value="0.001 to 0.999 nM"
molecule="COC(=O)N[C@@H](C(=O)N1CCC[C@H]1c1ncc(-c2ccc(-c3ncc(-c4cnc([C@@H]5CCCN5C(=O)Cc5cccnc5)[nH]4)cn3)cc2)[nH]1)c1ccccc1 [Example 152j-3]" measurement_target="HCV 1b-377-neo replicon cells" endpoint_name=EC50 meas_value="0.001 to 0.999 nM"

State the recorded EC50 for this entry: "COC(=O)N[C@@H](C)C(=O)N(C)[C@@H](C)c1ncc(-c2ccc(-c3ccc(-c4[nH]c([C@@H]5CCCN5C(=O)[C@H](C)NC(=O)OC)nc4C(F)(F)F)cc3)cc2)[nH]1" 0.001 to 0.999 nM

State the recorded EC50 for this entry: CN(C)[C@@H](C(=O)N1CCC[C@H]1c1ncc(-c2ccc(-c3ccc(-c4cnc([C@@H]5CCCN5C(=O)[C@@H](c5ccccc5)N(C)C)[nH]4)nn3)nn2)[nH]1)c1ccccc1 [Example 153c-1] 1 to 99 nM
